EXPERIMENT_NOTES: Plasma concentration after intramuscular injection (HPLC) in the paw pressure study
ASSAY_SETUP: rabbit, plasma, im, […]
MEASUREMENT_TYPE: half-life

QUERY: Entry under review: CCCCCCCCCC(=O)Oc1ccc2c3c1O[C@H]1[C@@H](O)CC[C@@]4(O)[C@@H](C2)N(CC2CCC2)CC[C@]314 [nalbuphine decanoate] . Reported half-life?
RESULT: 26 h
